- MEASUREMENT DESCRIPTION: Peptide solubility in PBS/H2O
- CONDITION DESCRIPTION: water, Solubility in H2O (mg/ml), H2O (second figure of cell)
Non-standard residues stand in square brackets, D forms with d. Residues, ends and D or L forms follow the SMILES beside them. *: point of attachment. Biotin = O=C1N[C@H]2[C@H](CS[C@H]2CCCCC(=O)*)N1; βAla = NCCC(=O)O
ATTRIBUTE MEASURED: solubility (µg/mL)
I only need the number, in µg/mL, no unit after it.

// query solubility value for entry CC(C)C[C@H](NC(=O)[C@H](Cc1c[nH]c2ccccc12)NC(=O)CCN)C(=O)N[C@@H](C)C(=O)N[C@@H](Cc1ccc(O)cc1)C(=O)N1CCC[C@H]1C(=O)N[C@@H](CC(=O)O)C(=O)N[C@@H](CO)C(=O)N[C@H](C(=O)N1CCC[C@H]1C(=O)N[C@@H](Cc1ccc(O)cc1)C(=O)NCC(=O)N[C@@H](CO)C(=O)NCC(=O)N[C@@H](CCCCNC(=O)CCCC[C@@H]1SC[C@@H]2NC(=O)N[C@@H]21)C(=O)O)C(C)C [βA-WLA-YGSGK-bio] (H-[βAla]WLAYPDSVPYGSGK(Biotin)-OH; N-terminus and C-terminus assumed) 5000

Given the compound CSCC[C@H](NC(=O)[C@H](CCSC)NC(=O)[C@@H]1CCCN1C(=O)[C@@H](NC(=O)[C@H](CO)NC(=O)[C@H](CC(=O)O)NC(=O)[C@@H]1CCCN1C(=O)[C@H](Cc1ccc(O)cc1)NC(=O)[C@H](C)NC(=O)[C@H](CO)NC(=O)[C@@H](N)Cc1ccc(O)cc1)C(C)C)C(=O)N[C@@H](CO)C(=O)NCC(=O)N[C@@H](CO)C(=O)NCC(=O)N[C@@H](CO)C(=O)N[C@@H](CCCCN)C(=O)O [YSA-GSGSK] , what is its reported solubility? 5000
